Where these numbers come from: patent EP4782008A1

assay: Pharmacokinetics following single oral administration; assay type: in vivo, healthy Chinese subjects; conditions: human, plasma; single oral dose of tablets on empty stomach; range over dose groups; read-out: mean plasma drug elimination half-life period
measured_endpoint: half-life

Please indicate half-life recorded for COc1cc2c(cc1OC)C(=O)C(CC1(F)CCN(Cc3ccccc3F)CC1)C2 (stereo not shown) 14.2 to 32.1 h

---

experiment: Pharmacokinetics following single oral administration; format: in vivo, healthy Chinese subjects; conditions: human, plasma; single oral dose 4 mg, empty stomach
measured_endpoint: AUC(0-inf)
Please provide the amount together with its unit, number first.

Consider the molecule COc1cc2c(cc1OC)C(=O)C(CC1(F)CCN(Cc3ccccc3F)CC1)C2 (stereo not shown) [compound of formula (I)] and give its recorded AUC(0-inf). 69.4 ng·h/mL

---

experiment: Pharmacokinetics following single oral administration; type: in vivo, healthy Chinese subjects; conditions: human, plasma; single oral dose 8 mg, empty stomach
measured_endpoint: AUC(0-inf) (ng·h/mL)
Report as a plain number; the unit ng·h/mL is understood.

Could you please provide reported AUC(0-inf) for COc1cc2c(cc1OC)C(=O)C(CC1(F)CCN(Cc3ccccc3F)CC1)C2 (stereo not shown) ? Thanks! 135

---

experiment: Pharmacokinetics following single oral administration; type: in vivo, healthy Chinese subjects; conditions: human, plasma; single oral dose 12 mg, empty stomach
measured_endpoint: AUC(0-inf) (ng·h/mL)
Numeric only. Scale: ng·h/mL

In one line, give reported AUC(0-inf) of the entry COc1cc2c(cc1OC)C(=O)C(CC1(F)CCN(Cc3ccccc3F)CC1)C2 (stereo not shown) . 220
